These data points were gathered from ChEMBL document CHEMBL1125575.

Recorded pIC50 values for a group of molecules are listed next.
Species: Oryctolagus cuniculus
Experiment: cells
Type: functional, organism-based, Stomach
Conditions: Stomach
Description: In vitro inhibition of 14C amino-pyrine uptake was determined in isolated rabbit gastric glands after dbcAMP stimulation
Entry type: numeric. Quantity: pIC50, the -log10 of concentration in molar units.

// solved cases for pIC50 follow
{"columns": ["molecule", "pIC50"],
 "data": [
  ["COc1c(Br)cnc(C[S+]([O-])c2nc3cscc3[nH]2)c1C (stereo not drawn)", 4.09],
  ["COc1c(Cl)cnc(C[S+]([O-])c2nc3cscc3[nH]2)c1C (stereo not drawn)", 3.64]
]}

Next, consider the following molecule.
// query So what's the measured pIC50 for this one? COc1ccnc(C[S+]([O-])c2nc3cscc3[nH]2)c1OC(F)(F)C(F)F (stereo not drawn)
// result 5.52

* * *

Species: Oryctolagus cuniculus
Test: cells
Assay type: functional, organism-based, Stomach
Settings: Stomach
// returns Not fulfilled unless IC50 is strictly below 2 µM, in which case Fulfilled

{"columns": ["compound", "class name"],
 "data": [
  ["[O-][S+](Cc1nccc(OCC(F)(F)F)c1OCC(F)(F)F)c1nc2cscc2[nH]1 (stereo unspecified)", "Fulfilled"],
  ["COc1c(OCc2ccc(F)cc2)ccnc1C[S+]([O-])c1nc2cscc2[nH]1 (stereo unspecified)", "Fulfilled"],
  ["Cc1ccc(C[S+]([O-])c2nc3c(C)sc(C)c3[nH]2)nc1 (stereo unspecified)", "Not fulfilled"],
  ["Cc1cccnc1C[S+]([O-])c1nc2cscc2[nH]1 (stereo unspecified)", "Not fulfilled"],
  ["CCCCOc1ccnc(C[S+]([O-])c2nc3cscc3[nH]2)c1 (stereo unspecified)", "Fulfilled"]
]}

// query Quick check: IC50 of [O-][S+](Cc1cc(OCc2ccc(F)cc2F)ccn1)c1nc2cscc2[nH]1 (stereo unspecified) under 2 µM?
// result Fulfilled

// query Does the reported IC50 of the following compound sit strictly below 2 µM? COc1c(OCC(F)(F)F)ccnc1C[S+]([O-])c1nc2cscc2[nH]1 (stereo unspecified)
// result Not fulfilled

// query Confirm or reject: IC50 of CC(C)Oc1ccnc(C[S+]([O-])c2nc3cscc3[nH]2)c1Cl (stereo unspecified) lies strictly below 2 µM
// result Fulfilled

// query Strictly below 2 µM: is that where IC50 of COc1ccnc(C[S+]([O-])c2nc3c(C)sc(C)c3[nH]2)c1 (stereo unspecified) sits?
// result Not fulfilled

// query In the record for [O-][S+](Cc1cc(Oc2ccc(F)cc2)ccn1)c1nc2cscc2[nH]1 (stereo unspecified) , is IC50 less than 2 µM?
// result Not fulfilled

* * *

Species on record: Oryctolagus cuniculus
Assay: cells
Type: functional, organism-based, Stomach
Settings: Stomach
pIC50: −log10 of the molar value.
Classify on pIC50 using low band: < 4; middle band: ≥ 4 and < 6; high band: ≥ 6

{"columns": ["compound", "class name"],
 "data": [
  ["COc1c(C)cnc(C[S+]([O-])c2nc3cscc3[nH]2)c1C (centres undefined)", "low band"],
  ["Cc1sc(C)c2[nH]c([S+]([O-])Cc3nccc(OC(C)C)c3Cl)nc12 (centres undefined)", "middle band"],
  ["CC(=O)c1scc2[nH]c([S+]([O-])Cc3cc(OCC(F)(F)F)ccn3)nc12 (centres undefined)", "middle band"],
  ["[O-][S+](Cc1cc(OCC(F)(F)F)ccn1)c1nc2cscc2[nH]1 (centres undefined)", "middle band"],
  ["Cc1cccc(C[S+]([O-])c2nc3cscc3[nH]2)n1 (centres undefined)", "low band"],
  ["COc1ccnc(C[S+]([O-])c2nc3cscc3[nH]2)c1Br (centres undefined)", "middle band"]
]}

// query Bin? [O-][S+](Cc1cc(OCc2ccc(Cl)cc2)ccn1)c1nc2cscc2[nH]1 (centres undefined)
// result high band

// query Field: class (pIC50) — entry: Cc1ccc(C[S+]([O-])c2nc3cscc3[nH]2)nc1 (centres undefined)
// result middle band

* * *

Species on record: Oryctolagus cuniculus
Assay: cells
Assay type: functional, organism-based, Stomach
Settings: Stomach
Catalogue of pIC50 values
Lab note: report pIC50 as minus log10 of the concentration in molar units, number only.

Example cases with answers are listed next.
{"columns": ["molecule", "value type", "measured number"],
 "data": [
  ["[O-][S+](Cc1cc(OCc2cc(Cl)cc(Cl)c2)ccn1)c1nc2cscc2[nH]1 (stereo unspecified)", "pIC50", 5.96],
  ["[O-][S+](Cc1ncccc1OCC(F)(F)F)c1nc2cscc2[nH]1 (stereo unspecified)", "pIC50", 3.92],
  ["COc1c(OCC(F)(F)C(F)(F)F)ccnc1C[S+]([O-])c1nc2cscc2[nH]1 (stereo unspecified)", "pIC50", 6.00]
]}

// query Request the reported pIC50 associated with [O-][S+](Cc1cc(OCC(F)(F)C(F)(F)C(F)(F)C(F)F)ccn1)c1nc2cscc2[nH]1 (stereo unspecified)
// result 5.52

// query Which pIC50 is listed for COc1c(OCc2ccc(C(F)(F)F)cc2)ccnc1C[S+]([O-])c1nc2cscc2[nH]1 (stereo unspecified) ?
// result 6.30

// query Name the recorded pIC50 for COc1c(C)cnc(C[S+]([O-])c2nc3c(-c4ccccc4)scc3[nH]2)c1C (stereo unspecified) .
// result 5.38

// query Tell me the measured pIC50 of COc1c(OCc2cc(C(F)(F)F)cc(C(F)(F)F)c2)ccnc1C[S+]([O-])c1nc2cscc2[nH]1 (stereo unspecified) , please.
// result 6.30

// query Entry Cc1sc(C)c2[nH]c([S+]([O-])Cc3cc(OCC(F)(F)C(F)(F)C(F)(F)F)ccn3)nc12 (stereo unspecified) : reported pIC50 = ?
// result 4.59

// query Suppose we examine the molecule COc1cc(C[S+]([O-])c2nc3cscc3[nH]2)ncc1Br (stereo unspecified) ; what pIC50 value has been reported?
// result 4.72

// query Could you tell me which pIC50 is on file for COC(=O)c1sc2[nH]c([S+]([O-])Cc3cc(OC)ccn3)nc2c1C(=O)OC (stereo unspecified) ?
// result 3.00

// query Endpoint output: pIC50 of COc1ccnc(C[S+]([O-])c2nc3cscc3[nH]2)c1OC (stereo unspecified) . Value?
// result 5.44

// query Can you look up the measured pIC50 of [O-][S+](Cc1cc(OCC(F)(F)C(F)(F)F)ccn1)c1nc2cscc2[nH]1 (stereo unspecified) for me?
// result 6.00

* * *

Species: Oryctolagus cuniculus
Test: cells
Assay type: functional, organism-based, Stomach
Details: Stomach
Item-by-item account of IC50
Record the value in µM, omitting the unit from your answer.

Solved cases below.
{"columns": ["molecule", "IC50 [µM]"],
 "data": [
  ["[O-][S+](Cc1nccc(Oc2ccccc2)c1Cl)c1nc2cscc2[nH]1 (centres undefined)", 61],
  ["[O-][S+](Cc1ccc(Cl)cn1)c1nc2cscc2[nH]1 (centres undefined)", 1000],
  ["[O-][S+](Cc1cc(Oc2ccc(Cl)cc2)ccn1)c1nc2cscc2[nH]1 (centres undefined)", 2]
]}

Here is another molecule to look at.
// query So what does the record say about IC50 for COc1ccc(C[S+]([O-])c2nc3cscc3[nH]2)nc1 (centres undefined) ?
// result 1000
